molecular target: Human glucagon receptor (human, UniProt P47871 26-477); test: cell-based or functional assay
Where no end group is shown, it is not given here. [ ]: non-standard residue; d: D form. Ac3c = NC1(C(=O)O)CC1; Aib = CC(C)(N)C(=O)O
RESULT_TYPE: cAMP production with saturated glucagon peptide; test compound 1 nM (pmol/ml/µg prt)

For orientation, consider the following solved cases.
| BINDER | UNITS_TEXT | MEASURED_NUMBER |
| --- | --- | --- |
| H[Aib]QGTFTSD[Bip(OMe)][Bip(2CF3)] [Seq. ID. No. 16: H-Aib-QGTFTSD-Bip(OMe)-Bip(2CF3)] | pmol/ml/µg prt | 4 |
| H[Ac3c]QGTFTSD[Bip(OMe)][Bip(2CF3)] (not fully specified) [Seq. ID. No. 20: H-(ACP)-QGTFTSD-Bip(OMe)-Bip(2CF3)] | pmol/ml/µg prt | 5 |

a: HSQGTXTSDXX (α-Me-2F-Phe at 6; Bip(OMe) at 10; Bip(2F) at 11) [Seq. ID. No. 23: HSQGT-(α-Me-2F-Phe)-TSD-Bip(OMe)-Bip(2F)]
b: HXQGTXTSDXX (ACP at 2; α-Me-2F-Phe at 6; Bip(OMe) at 10; Bip(2Me) at 11) [Seq. ID. No. 33: H-(ACP)-QGT-(α-Me-2F-Phe)-TSD-Bip(OMe)-Bip(2Me)]
c: HSQGTFTSD[Bip(OMe)][Bip(2F)] (not fully specified (C-terminus); printed as HSQGTFTSD-Bip(OMe)-Bip(2F)) [Seq. ID. No. 7: HSQGTFTSD-Bip(OMe)-Bip(2F)]
d: H[Aib]QGTFTSD[Bip(OMe)][Bip(Pyr)] [Seq. ID. No. 14: H-Aib-QGTFTSD-Bip(OMe)-Bip(Pyr)]
QUERY: # desc sort on cAMP production with saturated glucagon peptide; test compound 1 nM across 4 binders Labels, requested order.
RESULT: d, c, a, b
